Below, each entry is listed with its recorded GI50.
Tested on: RPMI-8226
Assay: NCI tumour cell line growth inhibition, 48 h
Activity calls are given as the source filed them. Rule as the data show it: active = GI50 up to about 1.1 µM and inactive = higher.

Guide cases for GI50, answers given:
Request the reported GI50 associated with CC1(C)[C@@H]2C[C@H]1c1cnc(-c3ccccn3)cc1C2[C@@H]1c2cc(-c3ccccn3)ncc2[C@@H]2C[C@H]1C2(C)C (stereo not given in full) 31.7 µM (inactive)

Request the reported GI50 associated with O=C(O)C(CS)Nc1c2ccccc2nc2ccccc12 (stereo not given) 48.2 µM (inactive)

Further cases:
Request the reported GI50 associated with CCN(CC)c1nc(=O)c(C(=O)C(C)(C)C)c(C(C)(C)C)o1 > 100 µM (inactive)

Request the reported GI50 associated with O=C1c2c(ccc3c2CCCC3)CC12Cc1ccccc1C2 4.35 µM (inactive)

Request the reported GI50 associated with COc1ccc(-n2/c(=N/C(=S)N(C)C)ss/c2=N\C(=S)N(C)C)cc1 21 µM (inactive)

Request the reported GI50 associated with S=C(Nc1cc(Cl)c(Cl)cc1Cl)SCc1ccccc1 21 µM (inactive)

Request the reported GI50 associated with CC1CCC2c3c([nH]c4ccccc34)C3C(=O)N(c4ccccc4)C(=O)C3C2C1 (stereo not given) > 100 µM (inactive)

Request the reported GI50 associated with COc1cc(S(=O)(=O)Nc2ccc(-c3csc(/N=C\c4ccccc4)n3)cc2)ccc1Cl 32 µM (inactive)

Request the reported GI50 associated with CC(C)(C)[Si](C)(C)OCC1OC(n2cnc3c(N)ncnc32)C2OC(=S)OC12 (stereo not given) 37.9 µM (inactive)

Request the reported GI50 associated with c1ccc(C2C3=C(CCCC3)Nc3nc4cc5ccccc5cc4n32)cc1 (stereo not given) > 100 µM (inactive)

---

Below, each entry is listed with its recorded GI50.
Tested on: UACC-257
Test: NCI tumour cell line growth inhibition, 48 h
Activity calls are given as the source filed them. Cut-off read from the data, not from the text of the source: active = GI50 up to about 1.1 µM and inactive = higher.

Guide cases for GI50, answers given:
Request the reported GI50 associated with CN(C)c1ccc(/C=C2\N=C(c3ccccc3)N(c3nc4ccc(Sc5ccccc5)cc4[nH]3)C2=O)cc1 24.3 µM (inactive)

Request the reported GI50 associated with CCOC(=O)NNC(=O)NCCCCNC(=O)NNC(=O)OCC > 100 µM (inactive)

Request the reported GI50 associated with c1ccc(C2C3=C(CCCC3)Nc3nc4cc5ccccc5cc4n32)cc1 (stereo unspecified) > 100 µM (inactive)

Request the reported GI50 associated with N#Cc1ccc(OCc2nc3cc(C(F)(F)F)ccc3nc2-c2ccccc2)cc1 > 100 µM (inactive)

Request the reported GI50 associated with CCCCCCCCCCCC(=O)OC[C@H](C[As](=O)(O)O)OC(=O)CCCCCCCCCCC 11 µM (inactive)

Request the reported GI50 associated with COc1ccc(CNc2nc3cc(C(F)(F)F)ccc3nc2-c2ccccc2)cc1OC 28.4 µM (inactive)

Request the reported GI50 associated with O=C(Nc1ccccc1)C(=O)C(C(=O)c1ccccc1F)C1OC(=O)c2ccccc21 (stereo unspecified) 66.5 µM (inactive)

Request the reported GI50 associated with O=C(/C=C/c1ccccc1O)C(c1ccccc1)c1ccccc1 > 100 µM (inactive)

Continue with the compound presented below.
Request the reported GI50 associated with CCC1(c2ccc(N)cc2)CCC(=O)NC1=O (stereo unspecified) [AMINOGLUTETHIMIDE] 2650 µM (inactive)

---

System: IGROV-1
Assay: NCI tumour cell line growth inhibition, 48 h
Active and inactive are the calls of the source. Cut-off read from the data, not from the text of the source: active = GI50 up to about 1.1 µM and inactive = higher.
Below, each entry is listed with its recorded GI50.

Request the reported GI50 associated with CC(=O)OCC(C)(COC(C)=O)N1C(=O)C2C3c4ccccc4C(c4ccccc43)C2C1=O (stereo unspecified) > 100 µM (inactive)

Request the reported GI50 associated with COc1ccc(/N=C2/SC(=N/N=c3\sc4ccccc4n3C)S/C2=N/c2ccc(OC)cc2)cc1 > 100 µM (inactive)

Request the reported GI50 associated with O=S(=O)(N=S(c1ccc(Cl)cc1)c1ccc(Cl)cc1)c1ccccc1 > 100 µM (inactive)

Request the reported GI50 associated with NS(=O)(=O)c1ccc(/N=N/c2cccnc2O)cc1 > 100 µM (inactive)

Request the reported GI50 associated with Ic1ncnc2c1ncn2C1CCCO1 (stereo unspecified) > 100 µM (inactive)

Continue with the compound presented below.
Request the reported GI50 associated with CC(C)S(=O)(=O)ON1C(=O)c2ccc(N(C)C)cc2C1=O 20.8 µM (inactive)

---

Below, each entry is listed with its recorded GI50.
Tested on: MOLT-4
Experiment: NCI tumour cell line growth inhibition, 48 h
The source made the active and inactive calls. Cut-off read from the data, not from the text of the source: active = GI50 up to about 1.1 µM and inactive = higher.

Request the reported GI50 associated with O=C1CCCC(O)=C1SC1=C(O)CCCC1=O > 100 µM (inactive)

Request the reported GI50 associated with CN(C)CCNC(=O)c1cccc(N(C)C(=O)c2ccccc2)c1[N+](=O)[O-] > 100 µM (inactive)

Request the reported GI50 associated with O=C(N/N=C(/c1ccccc1)C(F)(F)F)c1ccncc1 64.3 µM (inactive)

---

System: OVCAR-4
Test: NCI tumour cell line growth inhibition, 48 h
Calls of active or inactive are those of the source. Cut-off read from the data, not from the text of the source: active = GI50 up to about 1.1 µM and inactive = higher.
Below, each entry is listed with its recorded GI50.

Guide cases for GI50, answers given:
Request the reported GI50 associated with CCOC(=O)CC(=O)ON(C)C(=O)Cc1ccccc1 > 100 µM (inactive)

Request the reported GI50 associated with COc1ccc(C2=Nn3c(nc4sc(C)c(C)c4c3=O)SC2)cc1 > 100 µM (inactive)

Continue with the compound presented below.
Request the reported GI50 associated with C=C(NC(=O)C(=C)NC(=O)c1csc(C2=NC3c4csc(n4)C4NC(=O)c5csc(n5)C(C(C)(O)C(C)O)NC(=O)C5CSC(=N5)/C(=C/C)NC(=O)C(C(C)O)NC(=O)c5csc(n5)C3(CC2)NC(=O)C(C)NC(=O)C(=C)NC(=O)C(=C)NC(=O)C(C(C)C)NC2C=Cc3c(C(C)O)cc(nc3C2O)C(=O)OC4C)n1)C(N)=O (stereo not drawn) > 52.4 µM (inactive)

---

Tested on: SN12C
Experiment: NCI tumour cell line growth inhibition, 48 h
Active and inactive are the calls of the source. Cut-off read from the data, not from the text of the source: active = GI50 up to about 1.1 µM and inactive = higher.
Below, each entry is listed with its recorded GI50.

Request the reported GI50 associated with COc1cc([C@@H]2c3cc4c(cc3[C@@H](/N=C/c3ccc(C(=O)O[C@H]5C[C@H]6OC[C@@]6(OC(C)=O)[C@H]6[C@H](OC(=O)c7ccccc7)[C@]7(O)C[C@H](OC(=O)[C@H](OC(=O)c8ccc(/C=N/[C@@H]9c%10cc%11c(cc%10[C@@H](c%10cc(OC)c(O)c(OC)c%10)[C@H]%10C(=O)OC[C@@H]%109)OCO%11)cc8)[C@@H](NC(=O)c8ccccc8)c8ccccc8)C(C)=C([C@@H](OC(C)=O)C(=O)[C@]56C)C7(C)C)cc3)C3COC(=O)C32)OCO4)cc(C)c1O (some centres undefined) 18.8 µM (inactive)

Request the reported GI50 associated with O=C1c2c(ccc3c2CCCC3)CC12Cc1ccccc1C2 21.8 µM (inactive)

Request the reported GI50 associated with Cc1cccc(NC(=O)/C=C/c2ccccc2)c1C > 100 µM (inactive)

Request the reported GI50 associated with OC(c1nc2ccccc2s1)(C(F)(F)F)C(F)(F)F > 100 µM (inactive)

Request the reported GI50 associated with Cc1ccc(OCC2OC(C#N)C(Oc3ccc(C)cc3)C2Oc2ccc(C)cc2)cc1 (centres undefined) > 100 µM (inactive)

Further cases:
Request the reported GI50 associated with CCCCC(C#N)(OP1(=O)OC(c2ccccc2)C(C)N1C)c1ccccc1 (centres undefined) 16.7 µM (inactive)

Request the reported GI50 associated with [O-][N+]1(CC[N+]2([O-])CCCCC2)CCCCC1 > 100 µM (inactive)

Request the reported GI50 associated with CNC(=O)OCc1nc(SC)n(C)c1COC(=O)NC 103 µM (inactive)

Request the reported GI50 associated with CC(C)CCCCCCCCCCCCC(=O)NCC(=O)NC1C(C)OC(Nc2ncnc3c2ncn3C)C(O)C1O (centres undefined) 3.5 µM (inactive)

Request the reported GI50 associated with N#CCCN(CCCN(C(=O)Nc1ccccc1)c1ccccc1)C(=O)Nc1ccccc1 > 100 µM (inactive)

Request the reported GI50 associated with O=c1[nH]nc(-c2ccccc2)n1/N=C/c1c(O)ccc2ccccc12 45.3 µM (inactive)

Request the reported GI50 associated with Cc1ccc2c(c1C)CC1(Cc3c(ccc4c3CCC4)C1=O)C2=O (centres undefined) > 100 µM (inactive)

Request the reported GI50 associated with Cc1ccccc1-n1c(=O)c2ncn(CCCl)c2n(-c2ccccc2C)c1=S > 100 µM (inactive)

Request the reported GI50 associated with O=c1[nH]cnc2c1ncn2[C@H]1CO[C@@H](CO)[C@@H]1O > 100 µM (inactive)

Request the reported GI50 associated with CCOC(=O)Cc1csc2[n+]1C(=O)/C(=C\c1cccc(Cl)c1Cl)S2 16.2 µM (inactive)

Request the reported GI50 associated with O=[N+]([O-])c1cccc(/C=N\NS(=O)(=O)c2ccc(Cl)cc2)c1O > 100 µM (inactive)

Request the reported GI50 associated with O=C1CCC(=O)c2cc(Br)ccc2N1 > 100 µM (inactive)
